Just for reference, ChEMBL document CHEMBL4513216 is where these values come from.

- Test Name: Toxicity liver stage against HepG2, at 10uM
- Assay type: cell-based
- Set-up: test concentration 10 uM, cell line HepG2-A16-CD81EGFP
- Applied Conditions: human, HepG2-A16-CD81EGFP cells; read-out: INHIBITION
Provide the recorded cytotoxicity at 10 µM for the entries that follow.
Numbers only, in %.

Cc1nc(C)n(C2CCCN(C(=O)CCn3ccnn3)C2)n1 (stereo unspecified); -0.649

Working through the 7 compounds below one at a time, give cytotoxicity at 10 µM for each.
1. Cc1nc(CN2CCCC(c3cnccn3)C2)cs1 (stereo unspecified)
2. CCc1nc(C2CCCN(C(=O)c3ccccc3O)C2)no1 (stereo unspecified)
3. CC(C)NCC1(COc2ccccc2)C[C@@H](O)[C@@H](O)C1 (stereo partly specified)
4. O=C(CN1CCCC(c2noc(C3CC3)n2)C1)N1CCCC1 (stereo unspecified)
5. COCc1cc(N2CCOC(c3ccc(Cl)c(Cl)c3)C2)ncn1 (stereo unspecified)
6. CNC(=O)N1C[C@H]2N(c3ncccn3)CCC[C@@]2(C(=O)NCC2CC2)C1
7. COc1ccc2c(c1)CC(C1CCOCC1)N(C(=O)c1cnccn1)C2 (stereo unspecified)

1. -4.18
2. -7.39
3. 0.67
4. 1.87
5. 0.635
6. -101
7. 5.21

Please look at the items below and tell me cytotoxicity at 10 µM for each one, in order.
1. CN(C)CC1(O)CCCN(C(=O)c2ccccc2-n2cccn2)C1 (stereo unspecified)
2. COc1cc(NC2CCS(=O)(=O)CC2)ncn1
3. COCCCNC(=O)CN(C)C(C)c1nc(C)no1 (stereo unspecified)
4. O=C(Cc1ccc(Cl)cc1)N1CCC(O)(C(F)(F)F)C1 (stereo unspecified)
5. O=C(O)[C@]12CCCN(Cc3ccccc3)C[C@H]1CN(c1ncccn1)C2
6. CN(C)C(=O)C1CCCN(C(=O)c2ccccc2-n2cc(CN)cn2)C1 (stereo unspecified)
7. CCS(=O)(=O)N1CCC2(CC1)CN(c1cccnc1)C(=O)CO2

-20.6
-3.71
8.8
-12.3
-8.33
11.6
-109

Please list cytotoxicity at 10 µM recorded for the compound `CSCC[C@@H]1CN2CCC[C@H]2CN1Cc1coc2ccc(Cl)cc2c1=O`
0.11
